Test system: human lung cancer cell line NCI-H460
method-summary: Cell growth inhibition assay (MTT), NCI-H460
Type: cell-based
measurement-setup: Homo sapiens; NCI-H460, MTT assay, 72 hours; read-out: GI50 value (50% growth inhibitory concentration)
Where a name gives a salt, the structure may show the parent alone.
value-kind: GI50 (nM)

Some compounds with known GI50 results, for comparison:
compound="COc1c(C)cnc(Cn2nc3c4c(nc(N)nc42)SCC(NC2CC2)C3)c1C (centres unmarked) [Example 51, hydrochloride]" target_system="human lung cancer cell line NCI-H460" result=150
compound=Cn1c(=O)c(Cn2nc3c4c(nc(N)nc42)SCC3)cc2ccccc21 target_system="human lung cancer cell line NCI-H460" result=16000
compound="COc1c(C)cnc(Cn2nc3c4c(nc(N)nc42)SC(C(=O)Nc2nccs2)C3)c1C (centres unmarked)" target_system="human lung cancer cell line NCI-H460" result=57

(1) COc1c(C)cnc(Cn2nc3c4c(nc(N)nc42)SCC3)c1C
(2) Nc1nc2c3c(nn(Cc4cc5ccccc5cn4)c3n1)CCS2
query: Compare GI50: is it lower for 1 or for 2 ? Respond with the label that goes with your answer.
result: 1

----------
Measured GI50 values are reported for all entries that follow.
System: human lung cancer cell line NCI-H460
method-summary: Cell growth inhibition assay (MTT), NCI-H460
Type: cell-based
measurement-setup: Homo sapiens, NCI-H460, 72 h, read-out: GI50 value (50% growth inhibitory concentration)
Lab book: enter the figure in nM, no units written.

molecule="COc1c(C)cnc(Cn2nc3c4c(nc(N)nc42)SCC(CCN2CCCCC2)=C3)c1C [Example 145]" result=45
molecule="COc1c(C)cnc(Cn2nc3c4c(nc(N)nc42)SCC(CCO)=C3)c1C [Example 111]" result=94
molecule="COc1c(C)cnc(Cn2nc3c4c(nc(N)nc42)SC=C3)c1C [Example 151]" result=110

As a next step, examine the molecule that follows.
query: Param readout = GI50; param system = human lung cancer cell line NCI-H460; param query = COc1c(C)cnc(Cn2nc3c4c(nc(N)nc42)SCC(CCN2CCCC2)=C3)c1C [Example 141] ; response: value
result: 260

----------
target-system: recombinant yeast Hsp90 protein (rHsp90) (Saccharomyces cerevisiae)
method-summary: Hsp90 ATPase assay
measurement-setup: rHsp90 100 μg/mL, ATP 100 μM, 37° C., two hours, BIOMOL GREEN; read-out: IC50 value (concentration for 50% inhibition of ATP activity)
pIC50: −log10 of the molar value.
value-kind: pIC50

compound="COc1c(C)cnc(Cn2nc3c4c(nc(N)nc42)SC(C(=O)Nc2nccs2)C3)c1C (centres unmarked) [Example 191]" value_kind=pIC50 result=5.82
compound="COc1c(C)cnc(Cn2nc3c4c(nc(N)nc42)SC(C(=O)Nc2ncc(C)s2)C3)c1C (centres unmarked) [Example 194]" value_kind=pIC50 result=5.74
compound="COc1c(C)cnc(Cn2nc3c4c(nc(N)nc42)SCC(c2cccnc2)=C3)c1C [Example 223]" value_kind=pIC50 result=5.96

(I) Cc1cnc(Cn2nc3c4c(nc(N)nc42)SCC3)c(C)c1Cl [Example 175]
(II) Cn1c(=O)c(Cn2nc3c4c(nc(N)nc42)SCC3)cc2ccccc21 [Example 165]
query: Compare pIC50: is it lower for I or for II ? Respond with the label that goes with your answer.
result: II
(II: 5.70, I: 5.92)

----------
target-system: recombinant yeast Hsp90 protein (rHsp90) (Saccharomyces cerevisiae, UniProt P02829)
Sequence (P02829 whole entry): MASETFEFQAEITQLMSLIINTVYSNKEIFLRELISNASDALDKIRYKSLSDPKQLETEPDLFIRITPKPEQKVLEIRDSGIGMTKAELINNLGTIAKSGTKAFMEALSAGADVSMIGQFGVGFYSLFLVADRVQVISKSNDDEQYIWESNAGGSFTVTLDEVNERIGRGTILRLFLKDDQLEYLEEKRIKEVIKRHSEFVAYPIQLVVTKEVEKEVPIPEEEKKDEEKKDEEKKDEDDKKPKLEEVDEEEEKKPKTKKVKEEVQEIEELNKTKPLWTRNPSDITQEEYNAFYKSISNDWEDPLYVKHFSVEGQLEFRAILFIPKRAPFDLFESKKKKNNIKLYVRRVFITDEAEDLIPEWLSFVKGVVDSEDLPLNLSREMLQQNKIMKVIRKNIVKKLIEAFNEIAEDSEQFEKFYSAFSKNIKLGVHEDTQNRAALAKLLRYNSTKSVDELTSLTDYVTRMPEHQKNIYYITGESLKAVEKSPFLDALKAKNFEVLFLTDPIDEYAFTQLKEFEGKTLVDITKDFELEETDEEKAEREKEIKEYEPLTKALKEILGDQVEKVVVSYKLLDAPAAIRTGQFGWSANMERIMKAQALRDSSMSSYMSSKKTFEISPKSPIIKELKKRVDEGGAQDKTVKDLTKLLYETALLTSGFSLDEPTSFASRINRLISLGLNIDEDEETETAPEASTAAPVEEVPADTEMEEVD
method-summary: Hsp90 ATPase assay
measurement-setup: rHsp90 100 μg/mL, ATP 100 μM, 37° C., two hours, BIOMOL GREEN; read-out: IC50 value (concentration for 50% inhibition of ATP activity)
pIC50: −log10 of the molar value.
value-kind: pIC50

smiles_data=COc1c(C)cnc(Cn2nc3c4c(nc(N)nc42)SCC(C(=O)N2CCC(F)(F)C2)=C3)c1C result=5.64
smiles_data=COc1c(C)cnc(Cn2nc3c4c(nc(N)nc42)SCC(CO)=C3)c1C result=6.12
smiles_data=CCNC(=O)CC1=Cc2nn(Cc3ncc(C)c(OC)c3C)c3nc(N)nc(c23)SC1 result=6.21
smiles_data=COc1c(C)cnc(Cn2nc3c4c(nc(N)nc42)SCC(CCO)=C3)c1C result=6.09
smiles_data=COc1c(C)cnc(Cn2nc3c4c(nc(N)nc42)SCC=C3)c1C result=6.01

----------
target-system: recombinant yeast Hsp90 protein (rHsp90) (Saccharomyces cerevisiae)
method-summary: Hsp90 ATPase assay
measurement-setup: rHsp90 100 μg/mL, ATP 100 μM, 37° C., two hours, BIOMOL GREEN; read-out: IC50 value (concentration for 50% inhibition of ATP activity)
pIC50: −log10 of the molar value.
value-kind: pIC50

compound="COc1c(C)cnc(Cn2nc3c4c(nc(N)nc42)SCC(N(C)C(C)=O)C3)c1C (stereo not drawn)" target_system="recombinant yeast Hsp90 protein (rHsp90) (Saccharomyces cerevisiae)" result=6.09
compound=COc1c(C)cnc(Cn2nc3c4c(nc(N)nc42)SCC3)c1C target_system="recombinant yeast Hsp90 protein (rHsp90) (Saccharomyces cerevisiae)" result=6.00
compound=Nc1nc2c3c(nn(Cc4cc5c(cn4)OCCO5)c3n1)CCS2 target_system="recombinant yeast Hsp90 protein (rHsp90) (Saccharomyces cerevisiae)" result=5.82
compound=COc1c(C)cnc(Cn2nc3c4c(nc(N)nc42)SCC(CC(=O)N2CCC2)=C3)c1C target_system="recombinant yeast Hsp90 protein (rHsp90) (Saccharomyces cerevisiae)" result=6.20
compound=CCc1c(C)cnc(Cn2nc3c4c(nc(N)nc42)SCC3)c1C target_system="recombinant yeast Hsp90 protein (rHsp90) (Saccharomyces cerevisiae)" result=6.05

(I) Nc1nc2c3c(nn(Cc4nc5cccc(Cl)c5s4)c3n1)CCS2
(II) COc1c(C)cnc(Cn2nc3c4c(nc(N)nc42)SCC(CC(N)=O)=C3)c1C
query: Compare pIC50: is it lower for I or for II ? Respond with the label that goes with your answer.
result: I

----------
target-system: recombinant yeast Hsp90 protein (rHsp90) (Saccharomyces cerevisiae, UniProt P02829)
method-summary: Hsp90 ATPase assay
measurement-setup: rHsp90 100 μg/mL, ATP 100 μM, 37° C., two hours, BIOMOL GREEN; read-out: IC50 value (concentration for 50% inhibition of ATP activity)
value-kind: IC50 (nM)

molecule="COc1c(C)cnc(Cn2nc3c4c(nc(N)nc42)SCC(NC(C)=O)C3)c1C (centres unmarked)" unit_symbol=nM result=1400
molecule=COc1c(C)cnc(Cn2nc3c4c(nc(N)nc42)SCC(CCN2CCCCC2)=C3)c1C unit_symbol=nM result=890
molecule=COc1c(C)cnc(Cn2nc3c4c(nc(N)nc42)SCC(CCn2ccnc2)=C3)c1C unit_symbol=nM result=950
molecule="CNC(=O)C1Cc2nn(Cc3ncc(C)c(OC)c3C)c3nc(N)nc(c23)S1 (centres unmarked)" unit_symbol=nM result=1200
molecule="COc1c(C)cnc(Cn2nc3c4c(nc(N)nc42)SC(C#N)C3)c1C (centres unmarked)" unit_symbol=nM result=870
molecule="COc1c(C)cnc(Cn2nc3c4c(nc(N)nc42)SCC(N2CCC[C@H]2C(N)=O)C3)c1C (some centres unmarked)" unit_symbol=nM result=1200

(A) CNC(=O)CC1=Cc2nn(Cc3ncc(C)c(OC)c3C)c3nc(N)nc(c23)SC1
(B) Nc1nc2c3c(nn(Cc4cc5ccccc5cn4)c3n1)CCS2
query: When A and B are compared, which has the higher number for IC50? Respond with the label that goes with your answer.
result: B
(B: 1900 nM, A: 1100 nM)

----------
Tested on: human breast cancer cell line SK-BR-3
method-summary: Cell growth inhibition assay (MTT), SK-BR-3
Assay type: cell-based
measurement-setup: Homo sapiens, SK-BR-3, 72 h, read-out: GI50 value (50% growth inhibitory concentration)
value-kind: GI50 (nM)
Lab book: enter the figure in nM, no units written.

Some compounds with known GI50 results, for comparison:
smiles_data=COc1c(C)cnc(Cn2nc3c4c(nc(N)nc42)SCC(CCn2ccnc2)=C3)c1C value_kind=GI50 unit_symbol=nM result=67
smiles_data=CCNC(=O)CC1=Cc2nn(Cc3ncc(C)c(OC)c3C)c3nc(N)nc(c23)SC1 value_kind=GI50 unit_symbol=nM result=33
smiles_data=COc1c(C)cnc(Cn2nc3c4c(nc(N)nc42)SCC(CCN2CCCC2)=C3)c1C value_kind=GI50 unit_symbol=nM result=41
smiles_data=COc1c(C)cnc(Cn2nc3c4c(nc(N)nc42)SCC(CCO)=C3)c1C value_kind=GI50 unit_symbol=nM result=49
smiles_data=COc1c(C)cnc(Cn2nc3c4c(nc(N)nc42)SCC(C(=O)N2CCC(F)(F)C2)=C3)c1C value_kind=GI50 unit_symbol=nM result=75
smiles_data=COc1c(C)cnc(Cn2nc3c4c(nc(N)nc42)SC=C3)c1C value_kind=GI50 unit_symbol=nM result=48
smiles_data=COc1c(C)cnc(Cn2nc3c4c(nc(N)nc42)SCC(CCN2CCCCC2)=C3)c1C value_kind=GI50 unit_symbol=nM result=19

query: Data request, read-out GI50, for COc1c(C)cnc(Cn2nc3c4c(nc(N)nc42)SCC(c2cccnc2)=C3)c1C
result: 140
